# Lookup of reported Radioreceptor Assay 1 × 10^−7M keyed by entry
Biological target: A II receptor (Bos taurus, UniProt P25104)
Construct: An A II receptor membrane fraction was prepared from bovine adrenal cortex; from tissue; host or cells: bovine adrenal cortex membrane fraction
Sequence (P25104 whole entry): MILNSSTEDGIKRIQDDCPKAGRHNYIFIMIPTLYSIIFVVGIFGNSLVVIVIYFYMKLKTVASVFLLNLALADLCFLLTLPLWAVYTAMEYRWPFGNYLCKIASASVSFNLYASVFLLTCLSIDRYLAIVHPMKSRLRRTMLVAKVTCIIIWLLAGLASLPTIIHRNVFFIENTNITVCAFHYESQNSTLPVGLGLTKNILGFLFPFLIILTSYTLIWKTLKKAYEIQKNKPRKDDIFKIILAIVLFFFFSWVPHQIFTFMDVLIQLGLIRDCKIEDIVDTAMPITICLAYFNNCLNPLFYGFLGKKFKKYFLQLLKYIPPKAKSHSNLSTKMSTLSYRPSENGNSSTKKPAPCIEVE
Assay: Inhibition of binding of angiotensin II to angiotensin receptor (radioreceptor assay)
Parameters: species or system bovine; unit not given here
Details: inhibition of 125I-A II binding; compound 1 × 10^−7M; bovine adrenal cortex membrane fraction

| COMPOUND | Radioreceptor Assay 1 × 10^−7M |
| --- | --- |
| CCOc1nc2cccc(C(=O)OCOC(=O)C(C)(C)C)c2n1Cc1ccc(-c2ccccc2-c2nnn[nH]2)cc1 | 74 |
| CCNc1nc2cccc(C(=O)O)c2n1Cc1ccc(-c2ccccc2-c2nnn[nH]2)cc1 | 84 |
| CCOc1nc2cccc(C(=O)OCOC(=O)/C=C/c3ccccc3)c2n1Cc1ccc(-c2ccccc2-c2nnn[nH]2)cc1 | 44 |
| CCOc1nc2cccc(C(=O)OC(C)OC(=O)OC3CCCCC3)c2n1Cc1ccc(-c2ccccc2-c2nnn[nH]2)cc1 (centres unmarked) | 32 |
| CCNc1nc2cccc(C(=O)OC(C)OC(=O)OC3CCCCC3)c2n1Cc1ccc(-c2ccccc2-c2nnn[nH]2)cc1 (centres unmarked) | 19 |

These entries and their values trace back to patent US6844443B2.
